# Subject Of Test: HIV-1 DU172.17 envelope (Env) on Env.IMC.LucR virus (HIV-1 clade C)
# Experiment Summary: cell-based or functional assay
Labelling field: enter condition met if recorded IC50 of virus neutralization (TZM-BL, luciferase) is less than 0.3 mg/L. Enter condition not met if it equals or exceeds that cut-off.

Binder	Category
Germ12_NglycoSA_CysCA (antibody, V domains shown) VH: QVDLVQSGAVVKKPGDSVRVSCEAQGYRFPDYIIHWIRRAPGQGPEWMGWMNPMGGQVNIPWKFQGRVSMTRDTSIETAYMDLRGLRSDDTAVYYCVRDRSNGAGKRFESSNWFLDLWGRGTLVTVSS VL: QSALTQPRSVSGSPGQSVTISCTGTHNLVSWAQHQPGRAPKLLIYDFNKRPSGVPDRFSGSGSGGTASLTISGLQDEDDAEYFCWAYEAFGGGTKLTVL	condition met
Germ23 (antibody, V domains shown) VH: QVQLVQSGAEVKKPGASVKVSCEASGYRFPDYIIHWIRRAPGQGPEWMGWMNPMGGQVNIPWKFQGRVSMTRDTSIETAYMELRGLRSDDTAVYYCVRDRSNGSGKRFESSNWFLDLWGRGTLVTVSS VL: QSALTQPRSVSGSPGQSVTISCTGTHNLVSWCQHHPGKAPKLMIYDFNKRPSGVPDRFSGSGSGGTASLTISGLQAEDEAEYFCWAYEAFGGGTKLTVL	condition met
CysCA (antibody, V domains shown) VH: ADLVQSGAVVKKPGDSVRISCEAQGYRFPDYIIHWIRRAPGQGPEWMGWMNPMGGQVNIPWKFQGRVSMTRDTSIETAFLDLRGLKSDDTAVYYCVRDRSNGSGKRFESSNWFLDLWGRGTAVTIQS VL: QSALTQPRSVSASPGQSVTISCTGTHNLVSWAQHQPGRAPKLLIYDFNKRPSGVPDRFSGSGSGGTASLTITGLQDDDDAEYFCWAYEAFGGGTKLTVL	condition met
Germ17 (antibody, V domains shown) VH: QVDLVQSGAVVKKPGDSVRVSCEAQGYRFPDYIIHWIRRAPGQGPEWMGWMNPMGGQVNIPWKFQGRVSMTRDTSIETAYMDLRGLRSDDTAVYYCVRDRSNGSGKRFESSNWFLDLWGRGTLVTVSS VL: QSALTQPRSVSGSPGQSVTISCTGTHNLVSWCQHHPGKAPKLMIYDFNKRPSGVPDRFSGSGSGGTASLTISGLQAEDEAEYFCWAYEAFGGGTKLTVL	condition met
Cd4bs_H53MS_H54GY (antibody, V domains shown) VH: ADLVQSGAVVKKPGDSVRISCEAQGYRFPDYIIHWIRRAPGQGPEWMGWMNPSYGQVNIPWKFQGRVSMTRDTSIETAFLDLRGLKSDDTAVYYCVRDRSNGSGKRFESSNWFLDLWGRGTAVTIQS VL: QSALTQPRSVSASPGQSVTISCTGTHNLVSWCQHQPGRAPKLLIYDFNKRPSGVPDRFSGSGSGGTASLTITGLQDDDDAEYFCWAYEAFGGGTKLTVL	condition met
Germ12_NglycoSA_CysCV (antibody, V domains shown) VH: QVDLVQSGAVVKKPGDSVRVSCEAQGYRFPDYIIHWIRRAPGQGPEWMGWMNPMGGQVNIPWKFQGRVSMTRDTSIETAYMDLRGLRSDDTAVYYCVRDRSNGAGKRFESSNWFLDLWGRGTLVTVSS VL: QSALTQPRSVSGSPGQSVTISCTGTHNLVSWVQHQPGRAPKLLIYDFNKRPSGVPDRFSGSGSGGTASLTISGLQDEDDAEYFCWAYEAFGGGTKLTVL	condition not met
NglycoND (antibody, V domains shown) VH: ADLVQSGAVVKKPGDSVRISCEAQGYRFPDYIIHWIRRAPGQGPEWMGWMNPMGGQVNIPWKFQGRVSMTRDTSIETAFLDLRGLKSDDTAVYYCVRDRSDGSGKRFESSNWFLDLWGRGTAVTIQS VL: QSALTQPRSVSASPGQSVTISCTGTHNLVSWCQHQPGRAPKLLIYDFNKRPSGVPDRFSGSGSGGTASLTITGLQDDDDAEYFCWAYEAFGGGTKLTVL	condition not met
CysCV (antibody, V domains shown) VH: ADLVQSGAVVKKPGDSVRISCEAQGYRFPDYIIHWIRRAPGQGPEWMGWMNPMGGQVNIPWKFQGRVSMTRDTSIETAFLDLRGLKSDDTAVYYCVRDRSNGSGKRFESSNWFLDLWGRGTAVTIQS VL: QSALTQPRSVSASPGQSVTISCTGTHNLVSWVQHQPGRAPKLLIYDFNKRPSGVPDRFSGSGSGGTASLTITGLQDDDDAEYFCWAYEAFGGGTKLTVL	condition met
Germ12 (antibody, V domains shown) VH: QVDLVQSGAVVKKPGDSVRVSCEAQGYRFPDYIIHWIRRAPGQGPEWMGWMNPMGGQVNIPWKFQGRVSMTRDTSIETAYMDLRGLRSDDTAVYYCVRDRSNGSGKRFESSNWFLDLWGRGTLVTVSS VL: QSALTQPRSVSGSPGQSVTISCTGTHNLVSWCQHQPGRAPKLLIYDFNKRPSGVPDRFSGSGSGGTASLTISGLQDEDDAEYFCWAYEAFGGGTKLTVL	condition met
NglycoSA (antibody, V domains shown) VH: ADLVQSGAVVKKPGDSVRISCEAQGYRFPDYIIHWIRRAPGQGPEWMGWMNPMGGQVNIPWKFQGRVSMTRDTSIETAFLDLRGLKSDDTAVYYCVRDRSNGAGKRFESSNWFLDLWGRGTAVTIQS VL: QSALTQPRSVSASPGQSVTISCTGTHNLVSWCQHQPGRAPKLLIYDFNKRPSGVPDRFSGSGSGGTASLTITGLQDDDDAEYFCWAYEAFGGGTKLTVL	condition met
NVS49-L1A2 (antibody, V domains shown) VH: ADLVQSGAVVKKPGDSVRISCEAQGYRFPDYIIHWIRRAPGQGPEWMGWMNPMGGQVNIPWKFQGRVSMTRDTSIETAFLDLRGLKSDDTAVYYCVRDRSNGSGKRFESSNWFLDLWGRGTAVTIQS VL: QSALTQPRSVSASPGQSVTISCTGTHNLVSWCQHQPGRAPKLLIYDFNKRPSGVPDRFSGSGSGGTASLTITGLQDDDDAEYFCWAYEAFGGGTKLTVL	condition met
